Ref: paper PMC10578023

Target: human TYK2 pseudokinase domain (JH2) (Homo sapiens, UniProt P29597)
Construct: was added to the recombinant TYK2 pseudokinase domain
Sequence (P29597 589-875 limits assumed): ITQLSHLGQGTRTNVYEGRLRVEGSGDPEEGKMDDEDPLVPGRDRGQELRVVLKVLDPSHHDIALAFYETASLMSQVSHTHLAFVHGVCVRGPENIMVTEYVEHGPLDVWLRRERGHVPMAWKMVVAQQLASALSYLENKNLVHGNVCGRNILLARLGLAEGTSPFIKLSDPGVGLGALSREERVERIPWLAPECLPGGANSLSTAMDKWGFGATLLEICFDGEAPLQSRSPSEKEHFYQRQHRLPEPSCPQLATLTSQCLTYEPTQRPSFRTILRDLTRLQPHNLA
Experiment: TYK2 pseudokinase domain (JH2) binding assay, HTRF tracer competition
Conditions: recombinant TYK2 JH2 domain
Experimental: An assay that measures the ability of a compound to bind to the TYK2 pseudokinase domain through competition with a tracer was employed. First, human polyhistidine-tag (his-tagged) TYK2 pseudokinase was added to different concentrations of QL-1200186. […] After 1 h at RT, the homogeneous time-resolved fluorescence (HTRF) signal was measured on a plate reader (Envision™; PerkinElmer, Waltham, MA, USA).
value-kind: IC50 (nM)
Enter your answer as a number in nM; do not include the unit.

Q: What measured IC50 goes with CNC(=O)c1cnc2cc1Nc1cc(cc(-c3ccn(C)n3)c1OC)CCOCc1cccc(n1)N2 ?
Ans: 0.06

====

target: CYP450 1A2 (Homo sapiens); assay type: in vitro ADME
Sequence (P05177 whole entry): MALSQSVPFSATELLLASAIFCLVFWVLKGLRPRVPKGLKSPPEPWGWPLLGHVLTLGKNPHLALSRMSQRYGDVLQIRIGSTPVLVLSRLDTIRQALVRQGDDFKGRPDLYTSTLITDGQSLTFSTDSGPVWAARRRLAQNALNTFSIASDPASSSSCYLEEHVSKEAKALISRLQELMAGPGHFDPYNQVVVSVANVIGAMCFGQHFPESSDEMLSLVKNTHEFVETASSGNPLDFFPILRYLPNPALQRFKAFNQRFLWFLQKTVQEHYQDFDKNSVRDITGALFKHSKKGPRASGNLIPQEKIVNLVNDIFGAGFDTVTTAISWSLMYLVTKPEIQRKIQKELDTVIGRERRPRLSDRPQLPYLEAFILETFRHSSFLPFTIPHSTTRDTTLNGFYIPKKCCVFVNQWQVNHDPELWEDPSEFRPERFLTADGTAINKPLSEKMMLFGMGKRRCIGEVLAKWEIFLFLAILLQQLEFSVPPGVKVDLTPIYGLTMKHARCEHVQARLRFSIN
pIC50: −log10 of the molar value.
value-kind: pIC50

Q: What measured pIC50 goes with CNC(=O)c1cnc2cc1Nc1cc(cc(-c3ccn(C)n3)c1OC)CCOCc1cccc(n1)N2 [QL-1200186] ?
Ans: < 4.30

====

Tested on: JAK2/JAK2
Experiment: GM-CSF-stimulated pSTAT5 in U937 cells
Type: cell-based, human
Details: JAK2/JAK2-dependent; read-out: GM-CSF-stimulated STAT5 phosphorylation IC50
Description: With respect to GM-CSF-stimulated JAK2 activation in U937 cells (Cobioer Biosciences, CBP60277), after 1 h of treatment with QL-1200186, U937 cells were stimulated with GM-CSF (20 ng/mL; C003; Novoprotein, Suzhou, China) for 15 min. The stimulations stated above were terminated with prewarmed Lyse/Fix Buffer (558,049; BD Biosciences, San Jose, CA, USA) for 10 min. […] Phosphorylation of STAT5 was quantified by the median fluorescence intensity (MFI) after gating on the CD3-positive population.
pIC50: −log10 of the molar value.
value-kind: pIC50

Q: What measured pIC50 goes with CNC(=O)c1cnc2cc1Nc1cc(cc(-c3ccn(C)n3)c1OC)CCOCc1cccc(n1)N2 ?
Ans: < 5.00

====

target: JAK1 JH2 domain (Homo sapiens, UniProt P23458); experiment: JAK1 JH2 binding assay
Sequence (P23458 583-855 limits assumed): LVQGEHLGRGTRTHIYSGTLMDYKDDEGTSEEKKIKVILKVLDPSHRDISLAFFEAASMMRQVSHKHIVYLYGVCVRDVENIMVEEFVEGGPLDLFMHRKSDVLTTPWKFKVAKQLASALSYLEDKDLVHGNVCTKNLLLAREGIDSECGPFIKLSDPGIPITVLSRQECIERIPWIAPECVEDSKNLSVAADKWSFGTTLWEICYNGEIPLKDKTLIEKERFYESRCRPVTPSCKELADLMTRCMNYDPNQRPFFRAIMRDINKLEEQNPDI
value-kind: IC50 (nM)
Enter your answer as a number in nM; do not include the unit.

Q: What measured IC50 goes with CNC(=O)c1cnc2cc1Nc1cc(cc(-c3ccn(C)n3)c1OC)CCOCc1cccc(n1)N2 ?
Ans: 9.85

====

target: JAK1 (JH1) (Homo sapiens); test: JH1 kinase assay, HTRF KinEASE-TK
Sequence (P23458 875-1153 limits assumed): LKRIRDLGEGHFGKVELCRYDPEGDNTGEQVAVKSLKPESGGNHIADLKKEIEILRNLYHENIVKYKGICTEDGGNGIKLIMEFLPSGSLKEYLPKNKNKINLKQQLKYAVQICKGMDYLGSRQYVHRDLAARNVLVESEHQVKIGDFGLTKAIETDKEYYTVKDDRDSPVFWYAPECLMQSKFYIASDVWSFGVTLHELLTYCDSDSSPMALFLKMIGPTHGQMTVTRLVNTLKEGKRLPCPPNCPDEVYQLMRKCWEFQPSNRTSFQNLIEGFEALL
value-kind: IC50

Q: What measured IC50 goes with CNC(=O)c1cnc2cc1Nc1cc(cc(-c3ccn(C)n3)c1OC)CCOCc1cccc(n1)N2 ?
Ans: > 9.9 µM

====

target: JAK3 (JH1) (Homo sapiens); test: JH1 kinase assay, HTRF KinEASE-TK
Sequence (P52333 822-1111 limits assumed): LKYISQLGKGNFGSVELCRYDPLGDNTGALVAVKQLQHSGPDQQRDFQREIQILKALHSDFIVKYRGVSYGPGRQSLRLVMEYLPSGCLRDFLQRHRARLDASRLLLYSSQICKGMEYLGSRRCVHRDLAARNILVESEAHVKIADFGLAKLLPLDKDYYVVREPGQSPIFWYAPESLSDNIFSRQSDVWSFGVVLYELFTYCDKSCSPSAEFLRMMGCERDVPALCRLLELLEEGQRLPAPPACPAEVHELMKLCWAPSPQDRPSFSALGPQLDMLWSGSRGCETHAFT
value-kind: IC50

Q: What measured IC50 goes with CNC(=O)c1cnc2cc1Nc1cc(cc(-c3ccn(C)n3)c1OC)CCOCc1cccc(n1)N2 ?
Ans: > 9.9 µM

====

molecular target: UniProtKB P33261; experiment: CYP inhibition assay; assay type: in vitro ADME
Sequence (P33261 whole entry): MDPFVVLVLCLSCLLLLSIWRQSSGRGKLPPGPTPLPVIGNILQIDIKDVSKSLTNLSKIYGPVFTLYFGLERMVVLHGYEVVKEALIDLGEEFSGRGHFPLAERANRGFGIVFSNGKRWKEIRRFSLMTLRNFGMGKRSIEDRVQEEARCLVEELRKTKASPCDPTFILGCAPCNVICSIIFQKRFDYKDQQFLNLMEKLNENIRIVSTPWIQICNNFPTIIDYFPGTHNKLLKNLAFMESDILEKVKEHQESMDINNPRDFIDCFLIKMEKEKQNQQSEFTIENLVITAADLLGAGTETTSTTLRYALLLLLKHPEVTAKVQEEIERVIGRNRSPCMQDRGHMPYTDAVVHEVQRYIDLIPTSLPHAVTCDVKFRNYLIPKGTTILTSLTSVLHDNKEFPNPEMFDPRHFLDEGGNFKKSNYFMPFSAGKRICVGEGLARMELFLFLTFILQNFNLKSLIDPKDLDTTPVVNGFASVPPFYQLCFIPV
value-kind: IC50
Please don't drop the unit; write it after the number.

Q: For the record CNC(=O)c1cnc2cc1Nc1cc(cc(-c3ccn(C)n3)c1OC)CCOCc1cccc(n1)N2 [QL-1200186] , what value of IC50 is listed for UniProtKB P33261?
Ans: 2900 nM
